Data provenance is PubChem BioAssay (Tox21).

biological target: Muscarinic acetylcholine receptor M1 (Homo sapiens) (UniProt P11229); test: Cholinergic receptor muscarinic 1 (CHRM1) small molecule antagonists, cell-based qHTS assay (AID 1963588); details: CHRM1-CHO antagonist mode, calcium flux fluorescence; series mostly up to 61.5 µM; also: nearly all actives have a fitted effect of over 40% in size
Sequence (P11229 whole entry, looked up): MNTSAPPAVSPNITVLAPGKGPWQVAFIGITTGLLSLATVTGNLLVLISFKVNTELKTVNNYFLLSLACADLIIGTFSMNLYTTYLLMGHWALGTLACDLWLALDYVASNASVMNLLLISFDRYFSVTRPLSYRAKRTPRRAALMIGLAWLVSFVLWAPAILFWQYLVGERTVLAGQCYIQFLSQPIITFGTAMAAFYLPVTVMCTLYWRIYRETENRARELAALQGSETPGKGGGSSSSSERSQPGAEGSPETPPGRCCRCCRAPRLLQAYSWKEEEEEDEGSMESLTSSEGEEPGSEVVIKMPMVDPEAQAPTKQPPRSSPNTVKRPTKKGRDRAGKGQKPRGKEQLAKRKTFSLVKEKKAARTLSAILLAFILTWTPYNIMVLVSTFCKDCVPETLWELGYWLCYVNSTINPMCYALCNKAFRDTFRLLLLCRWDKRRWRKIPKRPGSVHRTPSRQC
Results filed as inconclusive are left out. Activity calls are given as the source filed them. Calls follow the shape of the full dose curve.
Your response should consist of one outcome taken from true (1) for active, false (0) for inactive

Please indicate how the test categorized `O=C(Nc1cccc(Cl)c1)OCC#CCCl` . false (0)

Test call, this molecule: `O=C(Oc1ccccc1)c1ccc2ccccc2c1O` false (0)

Fill in: this test's call for `CC(=O)c1ccc2c(c1)N(CCCN(C)C)c1ccccc1S2` is ___ true (1)

Recorded test outcome, item `C(=C(c1ccccc1)c1ccccc1)c1ccccc1` false (0)

Write down the call the test reported for this molecule. Item: `COC(=O)c1ccccc1OC` false (0)

Test call, this molecule: CCCCC(CC)CN=C(N)NC(N)=NCCCCCCN=C(N)NC(N)=NCC(CC)CCCC (stereo not drawn) true (1)

Check the results log: what was the call for `CC1CCN(CCCC(=O)c2ccc(F)cc2)CC1` ? false (0)

How did this test come out for CCCCCCCCCCCC(=O)OCC(O)CO (stereo not drawn) ? false (0)

What did the test return for `CCc1cc2cc(OC)c(OC)cc2c(Cc2ccccc2)n1` ? false (0)

Status in this test for `O=C1NCC2(CCN(CCc3ccccc3)CC2)O1` ? false (0)

# fetch the recorded call for `CCO[Si](CCCS)(OCC)OCC` here false (0)

Hi team, can someone confirm the assay call for `NS(=O)(=O)c1ccc(C(=O)O)cc1` ? false (0)

Can you look up the reported call for `Nc1ccccn1` for me? false (0)

For this molecule, state the assay outcome: `O=C1[C@@H]2[C@H]3CC[C@H](C3)[C@@H]2C(=O)N1CCCCN1CCN(c2ncccn2)CC1` false (0)

Recorded test outcome, item C=C(C)C1CC=C(C)C(=O)C1 (stereo not drawn) false (0)

Record lookup: outcome of this test for `CC(=O)Nc1ccccc1O` ? false (0)

What did the test return for `CN1CCN(CCCN2c3ccccc3Sc3ccc(S(=O)(=O)N(C)C)cc32)CC1` ? true (1)

Write down the call the test reported for this molecule. Item: `CC1(C)CCC[C@]2(C)[C@H]3CCO[C@]3(C)CC[C@@H]12` false (0)

---

target: Muscarinic acetylcholine receptor M1 (Homo sapiens) (UniProt P11229); assay: Cholinergic receptor muscarinic 1 (CHRM1) small molecule antagonists, cell-based qHTS assay (AID 1963588); settings: CHRM1-CHO antagonist mode, calcium flux fluorescence; series mostly up to 61.5 µM; also: nearly all actives have a fitted effect of over 40% in size
Results filed as inconclusive are left out. The source made the active and inactive calls. Calls follow the shape of the full dose curve.
Classes to choose from: true = active, false = inactive

compound: Nc1cc(Cl)cc(S(=O)(=O)O)c1O
class: false
--
compound: c1ccc2occc2c1
class: false
--
compound: CCCCCCCCCCCCCCCC(=O)OCC
class: false
--
compound: CCNC(=O)/C=C/c1cccc(Br)c1
class: false

Identify the outcome logged in this assay for the compound shown: `OCCc1ccncc1` false

Which outcome was assigned to CN1CCCN(C(c2ccccc2)c2ccc(Cl)cc2)CC1 (centres undefined) in this test? true

Which outcome was assigned to `SCCc1cnccn1` in this test? false

---

assay: p53 small molecule agonists, cell-based qHTS assay with rat liver microsomes: qHTS cell viability counter screen (AID 1963580); details: p53RE-bla HCT-116 + rat microsomes, ATP viability, 16 h; series mostly up to 66 µM; also: nearly all actives have a fitted effect of over 45% in size
Results filed as inconclusive are left out. Active and inactive are the calls of the source. Calls come from the whole dose curve.
The reply should be one of these categories: 1.0 for active, 0.0 for inactive

# outcome recorded in this test, key = `CN1CCN(c2ccccc2/C=C2\SCCN(c3ccc(Cl)c(Cl)c3)C2=O)CC1` 1.0

Any idea what this test logged for `CCN(CC)CCCN(c1ccccc1)C1Cc2ccccc2C1` ? 0.0
